A collection of molecules and their measured GI50
Tested on: OVCAR-3
Experiment: NCI tumour cell line growth inhibition, 48 h
Calls of active or inactive are those of the source. Rule as the data show it: active = GI50 up to about 1.1 µM and inactive = higher.

Solved entries (count: 4):
1) Cc1cc(-c2cc(C(C)(C)C)c(O)c(C(C)(C)C)c2)c(C)cc1-c1cc(C(C)(C)C)c(O)c(C(C)(C)C)c1	> 100 µM (inactive)
2) CC1OC(CC2C=CCc3c(O)c4c(c(O)c32)C(=O)c2ccccc2C4=O)CC(NC(=O)C(F)(F)F)C1O (stereo not given)	6.76 µM (inactive)
3) c1cncc(C2N3CCCCC3[C@@H]3c4[nH]c5ccccc5c4CCN23)c1 (stereo not given in full)	> 100 µM (inactive)
4) Cc1c(C2=C(Br)C(=O)N(C)C2=O)c(=O)n(C)c(=O)n1C	37.2 µM (inactive)

// switching to the query molecule
Q: Please report the recorded GI50 for Nc1c(Cl)ncnc1NCC1(CO)CCC1 .
Result: > 100 µM (inactive)

---

System: HL-60
Assay: NCI tumour cell line growth inhibition, 48 h
Activity calls are given as the source filed them. No stated cut-off is given here; in the data, active = GI50 up to about 1.1 µM and inactive = higher.
Pick one: active, inactive

Here are 3 molecules together with their reported answers.
1) O=C(c1ccccc1)c1ccc(-n2c3ccccc3c3ccc4c(c32)C(=O)C=CC4=O)cc1	inactive
2) CC(C)C(OC(=O)c1ccc(NCc2cc(O)ccc2O)cc1)C(C)C	active
3) CN1C(C(=O)Nc2ccccn2)=C(O)c2ccccc2S1(=O)=O	inactive

Q: What did the test return for CC#CC(O)(C(=O)OC1CC2CCC(C1)N2C)C1CCCC1 (stereo unspecified) ?
Result: inactive

Q: What did the test return for COc1ccc(/C=C/c2cc(=O)cc(/C=C/c3ccc(OC)c(O)c3)o2)cc1O ?
Result: inactive

Q: What did the test return for CSC1=NN(c2ccccc2)C(=O)C1=C(SC)SC ?
Result: inactive

---

Test system: TK-10
Assay: NCI tumour cell line growth inhibition, 48 h
Active and inactive are the calls of the source. No stated cut-off is given here; in the data, active = GI50 up to about 1.1 µM and inactive = higher.
A collection of compounds and their measured GI50

Solved entries (count: 2):
1) NNC(=O)c1cccc2c1Oc1ccccc1S2	> 100 µM (inactive)
2) Cc1nc(Nc2nc3ccccc3[nH]2)[nH]c(=O)c1CCO	39.4 µM (inactive)

Q: Please report the recorded GI50 for Cc1ccccc1NC(=O)C(=O)C(C(=O)c1ccccc1F)C1OC(=O)c2ccccc21 (stereo unspecified) .
Result: 43 µM (inactive)

Q: Please report the recorded GI50 for Nc1nc(F)nc2c1ncn2C1OC(CO)C(O)C1O (stereo unspecified) .
Result: > 100 µM (inactive)

Q: Please report the recorded GI50 for COc1cccc(C(=O)C(O)c2cccc(OC)c2OC)c1OC (stereo unspecified) .
Result: > 100 µM (inactive)

Q: Please report the recorded GI50 for O=C1c2cc3ncsc3cc2C(=O)c2c(O)ccc(O)c21 .
Result: > 100 µM (inactive)

---

Tested on: EKVX
Test: NCI tumour cell line growth inhibition, 48 h
Active and inactive are the calls of the source. No stated cut-off is given here; in the data, active = GI50 up to about 1.1 µM and inactive = higher.
measurement-name: GI50

Solved entries (count: 8):
1) COc1ccc(C(=O)N/N=C/c2c(C)n(C)n(-c3ccccc3)c2=O)cc1	> 100 µM (inactive)
2) COc1cc2c(c(O)c1C)C(=O)C(Cl)=CC2=O	16 µM (inactive)
3) COc1cc2c3cc1Oc1c(OC)c(OC)cc4c1C(=NCC4)Cc1ccc(cc1)Oc1cc(ccc1O)C[C@H]3N(C)CC2	23.2 µM (inactive)
4) COc1cc(C2c3cc4c(c(O)c3C(=O)C3CCC(=O)N32)OCO4)cc(OC)c1OC (centres undefined)	> 100 µM (inactive)
5) CC1C[C@]2(C)C(=O)Nc3ccccc3[C@@H]2Nc2ccccc21 (some centres undefined)	19.9 µM (inactive)
6) O=C(O)c1ccc(C2C(=O)N[C@@H]3CCC[C@H]23)cc1 (some centres undefined)	> 100 µM (inactive)
7) CC[C@]12C=CCN3CC[C@@]4(c5cc(N=O)c(OC)cc5N(C)[C@H]4[C@@](O)(C(=O)OC)[C@@H]1OC(C)=O)[C@@H]32	> 100 µM (inactive)
8) COc1ccc(/C(=C/n2ccnc2)C(=O)c2ccc(OC)c(OC)c2)cc1	> 100 µM (inactive)

// switching to the query compound
Q: Missing value: GI50, EKVX, entry Cc1ccc2nc3sc(=O)sc3nc2c1 . Fill in?
Result: 14.2 µM (inactive)

---

Test system: NCI/ADR-RES
Experiment: NCI tumour cell line growth inhibition, 48 h
The source made the active and inactive calls. No stated cut-off is given here; in the data, active = GI50 up to about 1.1 µM and inactive = higher.
measurement-name: GI50

1. COC(=O)C1(C(=O)OC)Cc2ccc(OC)cc2C2=C1C(=O)c1ccccc1C2=O	2.69 µM (inactive)
2. CC(C)C(OC(=O)c1ccc(NCc2cc(O)ccc2O)cc1)C(C)C	1.42 µM (inactive)
3. C[C@]12CC[C@H](O)CC1=CC[C@@H]1[C@@H]2CC[C@]2(C)C(=O)/C(=C/c3ccc([N+](=O)[O-])cc3)C[C@@H]12	16.2 µM (inactive)

Q: Missing value: GI50, NCI/ADR-RES, entry Nc1c(S(=O)(=O)O)cc(Nc2cccc(S(=O)(=O)/C=C/S(=O)(=O)O)c2)c2c1C(=O)c1ccccc1C2=O . Fill in?
Result: > 100 µM (inactive)

Q: Missing value: GI50, NCI/ADR-RES, entry COc1cccc2c1OC(c1cccc3ccccc13)C([N+](=O)[O-])=C2 (centres undefined) . Fill in?
Result: 1.71 µM (inactive)

Q: Missing value: GI50, NCI/ADR-RES, entry CCCCCCN(CCCCCC)C(=S)N/N=C(\C)c1ccccn1 . Fill in?
Result: 1.37 µM (inactive)

Q: Missing value: GI50, NCI/ADR-RES, entry Oc1c(C(O)c2ccccn2)ccc2ccccc12 (centres undefined) . Fill in?
Result: 42.1 µM (inactive)

Q: Missing value: GI50, NCI/ADR-RES, entry CN(C)CS/C(N)=N\C(O)C(Cl)(Cl)Cl (centres undefined) . Fill in?
Result: > 100 µM (inactive)

Q: Missing value: GI50, NCI/ADR-RES, entry O=C(O)c1ccc(/N=C(\C(=N\c2ccc(C(=O)O)cc2)c2ccccc2)c2ccccc2)cc1 . Fill in?
Result: > 100 µM (inactive)

---

Tested on: ACHN
Assay: NCI tumour cell line growth inhibition, 48 h
The source made the active and inactive calls. No stated cut-off is given here; in the data, active = GI50 up to about 1.1 µM and inactive = higher.
Pick one: yes (1) = active, no (0) = inactive

Here are 10 molecules together with their reported answers.
1) Nc1cc(CO)cc(Nc2c3ccccc3nc3ccccc23)c1	no (0)
2) CCC(C)c1c(Cl)nc(Cl)nc1Cl (stereo not drawn)	no (0)
3) CC(C)C[C@H](NC(=O)[C@H](Cc1cccc2ccccc12)NC(=O)N1CCOCC1)B(O)O	yes (1)
4) C[C@]12CC/C(=N\OCCN3CCCCC3)C=C1CCC1C2CC[C@@]2(C)C1CC[C@]2(C)O (stereo partly drawn)	no (0)
5) C=CC[C@H](O)[C@@](NC(=O)OCc1ccccc1)(Sc1ccc(C)cc1)C(F)(F)F	no (0)
6) CSc1cnc2ccccc2c1SC1CN(Cc2ccccc2)c2ccccc2C1=O (stereo not drawn)	no (0)
7) Nc1nc(N)c(CCCCc2ccccc2)c(N)n1	no (0)
8) COc1ccc(NC(=O)CC(=O)NN)cc1	no (0)
9) Cc1cc2c(=O)cc(-c3ccc(Cl)c(Cl)c3)oc2c(C(=O)O)c1C	no (0)
10) O=C1c2ccccc2-[n+]2ccc3c([nH]c4ccccc43)c21 [FASCAPLYSIN CHLORIDE]	yes (1)

Q: What did the test return for CC1=[N+]([O-])c2ccccc2C(=O)C1=O ?
Result: no (0)

Q: What did the test return for COc1ccc2[nH]c3c(c2c1)CCn1c-3nc2ccccc2c1=O ?
Result: no (0)

Q: What did the test return for Clc1ccc(Cc2nc3ccccc3nc2-c2cccc(Br)c2)cc1 ?
Result: no (0)

Q: What did the test return for COc1ccc(/C(=C/n2ccnc2)C(=O)c2ccc(OC)c(OC)c2)cc1 ?
Result: no (0)

Q: What did the test return for COc1cc2ncnc(Nc3cccc(Br)c3)c2cc1OC ?
Result: yes (1)

Q: What did the test return for OC1(C(Sc2ccccc2)Sc2ccccc2)CCCCCC1 ?
Result: no (0)

Q: What did the test return for CCN(CCCl)CCCNc1c2ccccc2nc2ccc(OC)cc12 ?
Result: yes (1)

Q: What did the test return for O=C1CCC(=O)N1n1c(Cc2ccc(Cl)cc2)n[nH]c1=O ?
Result: no (0)

Q: What did the test return for N#C/C(=C1C=C(Br)/C(=N\O)C=C\1Cl)c1cccc2ccccc12 ?
Result: no (0)

Q: What did the test return for C/N=N/N(C)C(=O)NC ?
Result: no (0)

Q: What did the test return for CN(C)CC1CCCc2ccccc2C1=O (stereo not drawn) ?
Result: no (0)

Q: What did the test return for CCOC(=O)C1=C(C)N(c2ccc(C)cc2)C2(O)C=CC(O)=C3C(=O)c4ccccc4C(=O)C312 (stereo not drawn) ?
Result: no (0)

Q: What did the test return for O=C1c2cccc([N+](=O)[O-])c2C(=O)c2nccnc21 ?
Result: no (0)
